tested on: rice (Oryza sativa); assay: Test B flooded paddy test; type: in vivo; details: Flood (flooded paddy test), 62 g ai/ha; scale of 0 to 100 where 0 is no effect and 100 is complete control; 13 to 15 days
Plant response rating, Rice values, listed per item

Query string: State its Plant response rating, Rice for this compound: "CCc1cccc(-n2c(-c3ccccc3)ncc(C(=O)C3=C(O)CCCC3=O)c2=O)c1"
Result string: 15

Query string: State its Plant response rating, Rice for this compound: "CCCn1c(-c2ccccc2F)ncc(C(=O)C2=C(O)CCCC2=O)c1=O"
Result string: 0

----------
Plant response rating, Johnsongrass values, listed per item
tested on: johnsongrass (Sorghum halepense); assay: Test D pre-/postemergence plant response; format: in vivo; conditions: Postemergence, 31 g ai/ha; scale 0 to 100
Simply state the number, no unit and no words.

Answered examples (3):
* O=C1CCCC(O)=C1C(=O)c1cnc(C2CC2)n(-c2ccccc2)c1=O [Compound 87] | 30
* COCCCn1c(-c2cc(F)cc(F)c2)ncc(C(=O)C2=C(O)C3CCC(C3)C2=O)c1=O (centres unmarked) [Compound 244] | 70
* O=C1CCCC(O)=C1C(=O)c1cnc(-c2ccccc2)n(C2CCCCC2)c1=O [Compound 128] | 40

Query string: State its Plant response rating, Johnsongrass for this molecule: O=C1CCCC(O)=C1C(=O)c1cnc(-c2cccs2)n(-c2ccccc2)c1=O [Compound 66]
Result string: 20

Query string: State its Plant response rating, Johnsongrass for this molecule: O=C1CCCC(O)=C1C(=O)c1cnc(-c2cccnc2)n(-c2ccccc2)c1=O [Compound 113]
Result string: 40

----------
test system: giant foxtail (Setaria faberii); experiment: Test A pre-/postemergence plant response; assay type: in vivo; conditions: Postemergence, 500 g ai/ha; visual injury, 0 to 100 scale (0 no effect, 100 complete control), approx. ten days
property_name: Foxtail, Giant plant response rating
Simply state the number, no unit and no words.

Answered examples (2):
* COc1cccc(-c2ncc(C(=O)C3=C(O)CCCC3=O)c(=O)n2C2CCCCC2)c1 | 100
* O=C1CCCC(O)=C1C(=O)c1cnc(-c2ccccc2)n(CCC(F)(F)F)c1=O | 90

Here's the next entry for you.
Query string: State its Foxtail, Giant plant response rating for this compound: "CCCn1c(-c2cc(F)cc(F)c2)ncc(C(=O)C2=C(O)CC(C)(C)CC2=O)c1=O"
Result string: 100

----------
Sunflower plant response rating values, listed per item
system: sunflower (common oilseed sunflower, Helianthus annuus); test: Test B pre-/postemergence plant response; type: in vivo; settings: Preemergence, 250 g ai/ha; 0 to 100 scale

Answered examples (3):
- O=C1CCCC(O)=C1C(=O)c1cnc(-c2cccnc2)n(-c2ccccc2)c1=O: 95
- COCCCn1c(-c2cc(F)cc(F)c2)ncc(C(=O)C2=C(O)C3CCC(C3)C2=O)c1=O (stereo not shown): 100
- CCCCn1c(CCC)ncc(C(=O)C2=C(O)CCCC2=O)c1=O: 85

Here's the next entry for you.
Query string: State its Sunflower plant response rating for this compound: "CCc1cccc(-n2c(-c3ccccc3)ncc(C(=O)C3=C(O)CCCC3=O)c2=O)c1"
Result string: 90

----------
tested on: velvetleaf (Abutilon theophrasti); assay: Test A pre-/postemergence plant response; assay type: in vivo; conditions: Preemergence, 125 g ai/ha; 0 to 100 scale, 0 = no effect, 100 = complete control
Just a reminder that ties go to f: only Plant response rating, Velvetleaf strictly below 60 counts as t.

Worked set:
- O=C1CCCC(O)=C1C(=O)c1cnc(-c2ccc(F)c(F)c2)n(C2CCCCC2)c1=O: t
- O=C1CCCC(O)=C1C(=O)c1cnc(C2CC2)n(-c2ccccc2)c1=O: f
- COc1ccc(-n2c(-c3cccc(C)c3)ncc(C(=O)C3=C(O)CCCC3=O)c2=O)cc1: t

Query string: Is 60 strictly greater than the compound's reported Plant response rating, Velvetleaf? compound: "COCCn1c(-c2ccco2)ncc(C(=O)C2=C(O)CCCC2=O)c1=O"
Result string: f

Query string: Is 60 strictly greater than the compound's reported Plant response rating, Velvetleaf? compound: "CCCn1c(-c2cc(Cl)cc(Cl)c2)ncc(C(=O)C2=C(O)CCCC2=O)c1=O"
Result string: f

Query string: Is 60 strictly greater than the compound's reported Plant response rating, Velvetleaf? compound: CCCn1c(-c2ccc3c(c2)OCCO3)ncc(C(=O)C2=C(O)C3CCC(C3)C2=O)c1=O (stereo not drawn)
Result string: t

Query string: Is 60 strictly greater than the compound's reported Plant response rating, Velvetleaf? compound: O=C1CCCC(O)=C1C(=O)c1cnc(-c2ccsc2)n(CC2CCCO2)c1=O (stereo not drawn)
Result string: f

Query string: Is 60 strictly greater than the compound's reported Plant response rating, Velvetleaf? compound: "C#CCn1c(-c2cc(F)cc(F)c2)ncc(C(=O)C2=C(O)CCCC2=O)c1=O"
Result string: t

Query string: Is 60 strictly greater than the compound's reported Plant response rating, Velvetleaf? compound: "Cc1ccc(-n2c(-c3cccc(Cl)c3)ncc(C(=O)C3=C(O)CCCC3=O)c2=O)cc1"
Result string: f

Query string: Is 60 strictly greater than the compound's reported Plant response rating, Velvetleaf? compound: "CCCn1c(C2CC2)ncc(C(=O)C2=C(O)CCCC2=O)c1=O"
Result string: f

Query string: Is 60 strictly greater than the compound's reported Plant response rating, Velvetleaf? compound: Cc1c(F)cccc1-n1c(-c2ccccc2)ncc(C(=O)C2=C(O)C3CCC(C3)C2=O)c1=O (stereo not drawn)
Result string: t

Query string: Is 60 strictly greater than the compound's reported Plant response rating, Velvetleaf? compound: "Cc1ccc(F)c(-n2c(-c3ccccc3)ncc(C(=O)C3=C(O)CCCC3=O)c2=O)c1"
Result string: f

Query string: Is 60 strictly greater than the compound's reported Plant response rating, Velvetleaf? compound: "Cc1ccc(F)cc1-n1c(-c2cc(F)cc(F)c2)ncc(C(=O)C2=C(O)CCCC2=O)c1=O"
Result string: f
